Molecular target: cynomolgus monkey αvβ5 expressed on BaF3 cells (cynomolgus monkey, UniProt A0A2K5WCD3 31-1048; A0A2K5UEB4 24-799)
Test: cell-based or functional assay
RESULT_TYPE: BaF3-cyno αvβ5 Cell adhesion to vitronectin (IC50, nM)
One number for each entry, in nM.

// recorded BaF3-cyno αvβ5 Cell adhesion to vitronectin (IC50, nM) for VH5/VL2 Agly-IgG4.P (S228P)/IgG1 (N297Q) (antibody, V domains shown, also called VH5/VL2 (Agly-IgG4P/G1); H5/L2) VH: EVQVQQSGGGLVKPGGSLRLSCKASGYTFTSYWMHWVKQAPGKGLEWVGAIYPGNSDTSYNQKFKGKATLSAVTSPNTAYLQMNSLKTEDTAVYYCTTTTYGYDWFAYWGQGTLVTVSS VL: NIQMTQSPSSLSASVGDRVTMSCKSSQSVLYSSNQKNYLAWYQQKPGKSPKLLIYWASTRESGVPDRFTGSGSGTDFTLTISSLQPEDFATYYCHQYLSSLTFGQGTKLEIKR : 0.63
